# Test system: Cavia porcellus
# assayProtocol: Antiasthmatic activity in Cavia porcellus (guinea pig) histamine phosphate-induced asthmatic model assessed as latent period of asthma at 50 mg/kg, administered 1 hr before histamine phosphate challenge with food (reference value: 115.4 +/- 126.2 /s)
# Assay type: functional

>  <smilesString>
C[C@H](NCCCN1CCN([C@H](c2ccccc2)c2ccc(Cl)cc2)CC1)C(=O)O

>  <Time / s>
307.6

$$$$
>  <smilesString>
O=S(=O)(Nc1nccs1)c1ccc(NCCCN2CCN([C@H](c3ccccc3)c3ccc(Cl)cc3)CC2)cc1

>  <Time / s>
324.8

$$$$
>  <smilesString>
Nc1ccc(S(=O)(=O)N(CCCN2CCN([C@H](c3ccccc3)c3ccc(Cl)cc3)CC2)c2nccs2)cc1

>  <Time / s>
240.3

$$$$
>  <smilesString>
Nc1ccc(S(=O)(=O)N(CCN2CCN([C@H](c3ccccc3)c3ccc(Cl)cc3)CC2)c2nccs2)cc1

>  <Time / s>
184.8

$$$$
>  <smilesString>
Nc1ccc(S(=O)(=O)N(CCN2CCN([C@H](c3ccccc3)c3ccc(Cl)cc3)CC2)c2ccc(Cl)nn2)cc1

>  <Time / s>
151.2

$$$$
>  <smilesString>
Nc1ccc(S(=O)(=O)NCCN2CCN([C@H](c3ccccc3)c3ccc(Cl)cc3)CC2)cc1

>  <Time / s>
266.2

$$$$
>  <smilesString>
Cc1cc(C)nc(NS(=O)(=O)c2ccc(NCCCN3CCN([C@H](c4ccccc4)c4ccc(Cl)cc4)CC3)cc2)n1

>  <Time / s>
136.8

$$$$
>  <smilesString>
O=S(=O)(Nc1nccs1)c1ccc(NCCN2CCN([C@H](c3ccccc3)c3ccc(Cl)cc3)CC2)cc1

>  <Time / s>
360

$$$$

---

# Time per record follows
# Test system: Cavia porcellus
# assayProtocol: Antiasthmatic activity in Cavia porcellus (guinea pig) histamine phosphate-induced asthmatic model assessed as latent period of asthma at 50 mg/kg, administered 1 hr before histamine phosphate challenge with food (reference value: 115.4 +/- 126.2 /s)
# Assay type: functional

>  <smilesString>
COc1ccc(NS(=O)(=O)c2ccc(NCCN3CCN([C@H](c4ccccc4)c4ccc(Cl)cc4)CC3)cc2)nn1

>  <Time [s]>
360

$$$$
>  <smilesString>
O=S(=O)(Nc1ccc(Cl)nn1)c1ccc(NCCCN2CCN([C@H](c3ccccc3)c3ccc(Cl)cc3)CC2)cc1

>  <Time [s]>
184.1

$$$$
>  <smilesString>
O=C(O)CNCCCN1CCN([C@H](c2ccccc2)c2ccc(Cl)cc2)CC1

>  <Time [s]>
360

$$$$
>  <smilesString>
Nc1ccc(S(=O)(=O)N(CCCN2CCN([C@H](c3ccccc3)c3ccc(Cl)cc3)CC2)c2ccc(Cl)nn2)cc1

>  <Time [s]>
301.8

$$$$
>  <smilesString>
COc1ccc(NS(=O)(=O)c2ccc(NCCCN3CCN([C@H](c4ccccc4)c4ccc(Cl)cc4)CC3)cc2)nn1

>  <Time [s]>
295.6

$$$$
>  <smilesString>
COc1ccc(N(CCN2CCN([C@H](c3ccccc3)c3ccc(Cl)cc3)CC2)S(=O)(=O)c2ccc(N)cc2)nn1

>  <Time [s]>
288

$$$$
>  <smilesString>
Cc1cc(C)nc(NS(=O)(=O)c2ccc(NCCN3CCN([C@H](c4ccccc4)c4ccc(Cl)cc4)CC3)cc2)n1

>  <Time [s]>
167.4

$$$$

---

Measured Time, listed per entry.
# Tested on: Cavia porcellus
# assayProtocol: Antiasthmatic activity in Cavia porcellus (guinea pig) histamine phosphate-induced asthmatic model assessed as latent period of asthma at 50 mg/kg, administered 1 hr before histamine phosphate challenge with food (reference value: 115.4 +/- 126.2 /s)
# Type: functional

>  <smilesString>
O=S(=O)(Nc1ncccn1)c1ccc(NCCCN2CCN([C@H](c3ccccc3)c3ccc(Cl)cc3)CC2)cc1

>  <Time [s]>
229.2

$$$$
>  <smilesString>
O=S(=O)(Nc1ccc(Cl)nn1)c1ccc(NCCN2CCN([C@H](c3ccccc3)c3ccc(Cl)cc3)CC2)cc1

>  <Time [s]>
255.5

$$$$
>  <smilesString>
Nc1ccc(S(=O)(=O)NCCCN2CCN([C@H](c3ccccc3)c3ccc(Cl)cc3)CC2)cc1

>  <Time [s]>
269.4

$$$$
>  <smilesString>
O=S(=O)(Nc1ncccn1)c1ccc(NCCN2CCN([C@H](c3ccccc3)c3ccc(Cl)cc3)CC2)cc1

>  <Time [s]>
246.4

$$$$

---

The following compounds are shown together with reported Activity values.
# System: Cavia porcellus
# assayProtocol: Antipruritic activity in Cavia porcellus (guinea pig) histamine phosphate-induced itching model assessed as increase of total amount of histamine phosphate level at 50 mg/kg, administered 1 hr before histamine phosphate challenge with food relative to levocetirizine
# Format: functional

>  <smilesString>
Nc1ccc(S(=O)(=O)N(CCCN2CCN([C@H](c3ccccc3)c3ccc(Cl)cc3)CC2)c2nccs2)cc1

>  <Activity [%]>
2.44

$$$$
>  <smilesString>
COc1ccc(N(CCN2CCN([C@H](c3ccccc3)c3ccc(Cl)cc3)CC2)S(=O)(=O)c2ccc(N)cc2)nn1

>  <Activity [%]>
62.62

$$$$
>  <smilesString>
O=S(=O)(Nc1nccs1)c1ccc(NCCN2CCN([C@H](c3ccccc3)c3ccc(Cl)cc3)CC2)cc1

>  <Activity [%]>
-18.8

$$$$
>  <smilesString>
C[C@H](NCCCN1CCN([C@H](c2ccccc2)c2ccc(Cl)cc2)CC1)C(=O)O

>  <Activity [%]>
113.8

$$$$
